Examples of sequences with documented PBM binding z-score follow.
system: RXRa homodimer (NR concentration 180 nM); assay: PBM binding z-score (relative to random genomic background probes); higher = stronger binding; sequences stand for … in GC…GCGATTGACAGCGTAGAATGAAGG
Lab note: write the figure by itself, no unit.

Consider the worked cases shown below.
Item Sequence | Measured Target | PBM binding z-score
ACTAGCAGGCCAAGCTTGGGTCACTCAAACAAAG | RXRa homodimer (NR concentration 180 nM) | 0.849
CGGCCAAGGTCAGAGAGGTCAGTGAATGCCGAGT | RXRa homodimer (NR concentration 180 nM) | 6.21
ACTGTTAGTTGAGACGAGGGCAACCGATAGGTTG | RXRa homodimer (NR concentration 180 nM) | 0.451

Input "GCTTGCAGGCCATTTGGGTCACTCAATGACGGGC" , output reported PBM binding z-score.
0.653
